# METHOD: folding stability dG unfold (combined trypsin and chymotrypsin); higher = more stable
Recorded folding stability dG unfold for the following sequences
Please respond with the number in kcal/mol and leave the unit unwritten.

| SEQUENCE_CONTENT | folding stability dG unfold, kcal/mol |
| --- | --- |
| SAGGSAGGKLKINNEEIGPDKSFPLKKGKEIKVYKDYVKVFVIDPKTNKKKEYTIKLEDLKKLFSAGGSAGG [r6_940_TrMRF] | 1.05 |
| SAGGSAGGSAGMVIVDPERGYIYIPFPEDIEPEEFIEANKIPEFDIEVLEIGENIPVIKLSAGGSAGGSAGG [r17_323_TrMRF] | 0.209 |

Query sequence follows.
-- ask What folding stability dG unfold value was documented for this sequence, SAGGSAGGSGMMLKIEIPVEDPGSEEKAKKIAEELAKKLGLSPKEVKIKIKVIPKLPPEEILNSAGGSAGGS [r12_1066_JUSTAS] ?
-- reply 0.582

* * *

# METHOD: folding stability dG unfold from trypsin proteolysis; higher = more stable
MEASURED_PARAMETER: folding stability dG unfold (kcal/mol)
Please respond with the number in kcal/mol and leave the unit unwritten.

| SEQUENCE_CONTENT | UNIT_STRING | folding stability dG unfold |
| --- | --- | --- |
| SAGGSAGGSMIIRIKTENGEEIEIEAESEEEAKKAAEELKKELEEKGYKIEEVEIYEIPEEELSAGGSAGGS [r12_301_TrROS_Hall] | kcal/mol | 1.13 |
| SAGGKMLVKIKIKVTIYDKNGKPVKEVELELVFPSLEDLLNALKSLSPEKIKKVEIVSIEEIDEEDLSAGGS [r16_677_TrROS_Hall] | kcal/mol | 3.5 |

-- ask What folding stability dG unfold value was documented for this sequence, SAGGSAGGSAGMVVVERTSAPDPDKPTSYWFYTKTTFFPDGSVLSETKKFPSPAELEKATSAGGSAGGSAGG [r11_792_JUSTAS] ?
-- reply 0.793

-- ask Ok, now SAGGSAGGSAGGSGNPVVRVFEFDDYIAVVTFNPGDGSVEVLSVGKVPPAAIPGSPELSSAGGSAGGSAGGS [r4_21_TrMRF]
-- reply 1.08

-- ask Ok, now SAGGMKPGEIVEKITIEIEINGKKYKIEMTFYKDNGIIEIKIYNKNGKLIKTFKFYIDPKTKKIILLSAGGS [r16_798_TrROS_Hall]
-- reply 3.66

-- ask Ok, now SAGMEKKTLTVTHPDGSEATVEVYKNPETGKYVTLVHYPETGKYEVFDDNGNLIATFGNGSAADAFKAISAG [r5_757_TrMRF]
-- reply 0.375

-- ask Ok, now SAGGMLLKLPLSSVEIPPDASEEEIEEAKRKLAKPKVVKVTEEVLIEENGIVKKVKVTKYVSLSVEESAGGS [r16_387_JUSTAS]
-- reply 0.845

-- ask Ok, now SAGGSAGGSGSSTEVTTTTLPDTSYTTTNSTTTTFSPDQPEAVEAGLPVPSTVTTTTTTSPAGSAGGSAGGS [r20_138_JUSTAS]
-- reply 0.918

-- ask Ok, now SAGGSAGGSAMTVLVMEIKIELRVNEDGSLELRMEIEIKPVEPITLEELAEKLGLSKEELLSAGGSAGGSAG [r3_338_TrROS_Hall]
-- reply 3.28

-- ask Ok, now SAGGSAGGSAGGMEGFTAVTFTTTTSSNGTRTTTVTTTTPDGTVTTTTTTTPVTPPPNTASAGGSAGGSAGG [r11_998_JUSTAS]
-- reply 0.503

-- ask Ok, now SAGGSAGGSAMKTFTKTFSSPEEAERAAEEIKEKLEKEGKKVKITFEKPETDTYIVTITIESAGGSAGGSAG [r3_211_JUSTAS]
-- reply 3.44

-- ask Ok, now SAGGSAGGSAFIRAEYKLPENKVLEIEIPVPESVLKKMSIEEVKELFKKLGLPDDVKIEFYDESAGGSAGGS [r12_742_TrMRF]
-- reply 1.43

-- ask Ok, now SAGGSAETLTITLTVKPGETVTIKALFKAEDGSVYAVTATFTAEDEGTVTITVTRLPPGVKDLADLSAGGSA [r15_909_TrROS_Hall]
-- reply 2.83

-- ask Ok, now SAGGSAGGSMIKRTVTVTVYFPGKPLSIPVEYTSEEELPVVAEEAVKPIIEKVPEYKIPEPKLSAGGSAGGS [r12_230_JUSTAS]
-- reply 0.529
